Reported values of MIC for individual entries
System: Mycolicibacterium smegmatis
Method Description: Antibacterial activity against Mycobacterium smegmatis MC2 155 ATCC
Format: functional
Experimental Endpoint: MIC (µg/mL)

>>> data_value("O=C(N[C@H](CO)[C@H](O)c1ccc([N+](=O)[O-])cc1)C(Cl)Cl")
10
>>> data_value("O=C(O)c1cn(C2CC2)c2cc(N3CCNCC3)c(F)cc2c1=O")
0.5
>>> data_value("NC[C@H]1O[C@H](O[C@H]2[C@H](O)[C@@H](O[C@H]3O[C@H](CO)[C@@H](O)[C@H](N)[C@H]3O)[C@H](N)C[C@@H]2N)[C@H](O)[C@@H](O)[C@@H]1O")
0.5
>>> data_value("CC1(C)S[C@@H]2[C@H](NC(=O)[C@H](N)c3ccccc3)C(=O)N2[C@H]1C(=O)O")
250

---

System: Staphylococcus aureus
Method Description: Antibacterial activity against Staphylococcus aureus ATCC 29213
Assay type: functional
Experimental Endpoint: MIC (µg/mL)

>>> data_value("CC1(C)S[C@@H]2[C@H](NC(=O)[C@H](N)c3ccccc3)C(=O)N2[C@H]1C(=O)O [AMPICILLIN]")
5
>>> data_value("NC[C@H]1O[C@H](O[C@H]2[C@H](O)[C@@H](O[C@H]3O[C@H](CO)[C@@H](O)[C@H](N)[C@H]3O)[C@H](N)C[C@@H]2N)[C@H](O)[C@@H](O)[C@@H]1O [KANAMYCIN]")
10
>>> data_value("O=C(N[C@H](CO)[C@H](O)c1ccc([N+](=O)[O-])cc1)C(Cl)Cl [CHLORAMPHENICOL]")
5
>>> data_value("O=C(O)c1cn(C2CC2)c2cc(N3CCNCC3)c(F)cc2c1=O [CIPROFLOXACIN]")
0.25
